Experiment Summary: A High-Content qHTS Against Drug Library for the Identification of Small Molecules that Inhibit DYT1 Early Onset Primary Dystonia-Associated Cell Pathology (AID 1645839)
Protocol Conditions: HEK293 Flp-In EGFP-delE TorsinA, punctate imaging, 48 h; series mostly up to 46.1 µM
Inconclusive results are not listed. The source made the active and inactive calls. Calls follow the shape of the full dose curve.
Measured Endpoint: outcome

Examples with their reported outcome follow.
>>> print(df.to_string())
                                   compound  measured_endpoint    result
0                                  NC(=O)NO            outcome  inactive
1          Nc1nc2c(ncn2COC(CO)CO)c(=O)[nH]1            outcome  inactive
2  CCN1CCCC1CNC(=O)c1cc(S(=O)(=O)CC)c(N)cc1OC (stereo not given)            outcome  inactive
3               CN(C)c1nc(N(C)C)nc(N(C)C)n1            outcome  inactive
4  CC(C)NCC(O)COc1ccc(CCOCC2CC2)cc1 (stereo not given)            outcome  inactive
5  CC[N+](CC)(CC)CCOc1cccc(OCC[N+](CC)(CC)CC)c1OCC[N+](CC)(CC)CC            outcome  inactive

Recorded result, CN1CCC(=C2c3ccccc3CC(=O)c3sccc32)CC1 , outcome: inactive

Recorded result, C[C@](N)(Cc1ccc(O)c(O)c1)C(=O)O , outcome: inactive

Recorded result, Cn1c(=O)c2c(ncn2C)n(C)c1=O , outcome: inactive
